test_protocol: Cmax in Sprague-Dawley rat at 0.3 mg/kg,iv measured at 0.05 to 24 hrs of post administration by LC-MS/MS analysis
Format: ADME, organism-based
reported_conditions: in vivo, time 0.05-24 hrs
assay_readout: Cmax (ng/mL)
Number in ng/mL, nothing else.

Cmax lookup needed for CN1[C@@H]2C[C@@H](OC(=O)[C@@](F)(CO)c3ccccc3)C[C@H]1[C@@H]1O[C@@H]12 , thanks.
230

* * *

measurement_target: Muscarinic acetylcholine receptor M1 (Homo sapiens, UniProt P11229)
Sequence (P11229 whole entry): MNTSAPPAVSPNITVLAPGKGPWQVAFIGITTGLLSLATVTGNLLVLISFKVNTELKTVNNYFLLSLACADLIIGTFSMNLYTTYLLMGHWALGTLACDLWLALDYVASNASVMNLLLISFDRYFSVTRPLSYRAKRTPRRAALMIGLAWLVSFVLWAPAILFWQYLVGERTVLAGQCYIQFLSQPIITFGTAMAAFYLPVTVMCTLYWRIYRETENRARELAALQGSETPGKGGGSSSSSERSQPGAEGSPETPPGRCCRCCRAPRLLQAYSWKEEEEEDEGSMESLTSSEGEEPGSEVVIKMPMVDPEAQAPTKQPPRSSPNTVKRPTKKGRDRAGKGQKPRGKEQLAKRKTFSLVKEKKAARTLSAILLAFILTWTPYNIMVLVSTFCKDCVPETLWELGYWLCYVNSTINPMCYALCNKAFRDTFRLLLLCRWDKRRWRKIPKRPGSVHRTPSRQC
test_protocol: Binding affinity to human N-terminal eGFP-tagged CHRM1 expressed in HEK293T cells assessed as dissociation constant incubated for 10 mins by microscale thermophoresis assay
Type: cell-based
assay_readout: pKd
Keep in mind that pKd stands for -log10 of concentration in molar terms.

pKd lookup needed for CN1[C@@H]2C[C@@H](OC(=O)[C@@](F)(CO)c3ccccc3)C[C@H]1[C@@H]1O[C@@H]12 , thanks.
3.47
